pIC50, cAMP and cAMP-inhibited cGMP 3',5'-cyclic phosphodiesterase 10A (Homo sapiens): measured values
pIC50: −log10 of the molar value.
measurementType: pIC50

molecule | readoutNumber
Cn1cnc(C(=O)N2CCC2)c1C(=O)Nc1ccn2nc(-c3ccccc3)nc2c1 [Roche-Dataset for PDE10A, Compound 183] | 7.68
Cn1ncc(C(=O)N2CCC2)c1C(=O)Nc1ccn(-c2cc(Cl)cc(Cl)c2)n1 [Roche-Dataset for PDE10A, Compound 1051] | 7.37
Cc1cc(-n2nc(CCc3nc4c(C(F)(F)F)cc(Cl)c(C)n4n3)nc2N2CCCC2)ccn1 [Roche-Dataset for PDE10A, Compound 40] | 8.01
Cc1cc(NC(=O)c2c(C(=O)N3CCC3)cnn2C)n(C2CCCC2)n1 [Roche-Dataset for PDE10A, Compound 1046] | 6.19
CC(C)Cn1ccc(NC(=O)c2nc(C3CC3)ccc2Nc2cncnc2)n1 [Roche-Dataset for PDE10A, Compound 624] | 8.23
CNC(=O)c1cc2[nH]c(-c3ccccc3)nc2cc1NC(=O)c1cc(C)n[nH]1 [Roche-Dataset for PDE10A, Compound 430] | 6.45

---

experimentalSystem: cAMP and cAMP-inhibited cGMP 3',5'-cyclic phosphodiesterase 10A (Homo sapiens, UniProt Q9Y233)
pIC50: −log10 of the molar value.
measurementType: pIC50

molecule | measurementType | readoutNumber
Cn1nc(-c2ccc3ccccc3n2)cc1NC(=O)c1c(C(=O)N2CCC2)cnn1C [Roche-Dataset for PDE10A, Compound 468] | pIC50 | 9.04
CC(C)Cn1nc(-c2ccccn2)cc1NC(=O)c1nc(C2CC2)ccc1Nc1cncnc1 | pIC50 | 8.91
CCN(CC)C(=O)c1c(C)noc1C(=O)Nc1ccn2nc(-c3ccccc3)nc2c1 [Roche-Dataset for PDE10A, Compound 258] | pIC50 | 5.51
Cn1ncc(C(=O)N2CCC2)c1C(=O)Nc1ccn(C(F)F)n1 [Roche-Dataset for PDE10A, Compound 1100] | pIC50 | 6.12
Cn1ncc(C(=O)N2CCC2)c1C(=O)Nc1cn(-c2ccccn2)cn1 [Roche-Dataset for PDE10A, Compound 833] | pIC50 | 7.34
O=C(NCCCS(=O)(=O)c1ccccc1)c1nc(C2CC2)cnc1Nc1cncnc1 [Roche-Dataset for PDE10A, Compound 665] | pIC50 | 6.09
Cc1cc(-n2nc(N3CCCC3)nc2CCc2nc3c(C(F)(F)F)cc(Cl)c(C)n3n2)ccn1 [Roche-Dataset for PDE10A, Compound 34] | pIC50 | 8.97
O=C(NCCc1ccc(C(F)(F)F)cc1)c1nc(C2CC2)cnc1Nc1cncnc1 [Roche-Dataset for PDE10A, Compound 383] | pIC50 | 6.60
O=C(Nc1ccc2[nH]c(-c3ccccc3)nc2c1)c1nc(C2CC2)ccc1Nc1cncnc1 [Roche-Dataset for PDE10A, Compound 423] | pIC50 | 9.62
Cc1ccc(CNC(=O)c2cnn(C)c2C(=O)Nc2ccn3cc(-c4ccccc4)nc3n2)nc1 [Roche-Dataset for PDE10A, Compound 862] | pIC50 | 6.49
CNC(=O)c1ccc(F)cc1NC(=O)c1nc(C2CC2)cnc1Nc1cncnc1 | pIC50 | 9.17
Cn1cc(-c2ccccc2)nc1CCNC(=O)c1cccn2c(C3CC3)nnc12 [Roche-Dataset for PDE10A, Compound 92] | pIC50 | 7.37
CCn1nccc1NC(=O)c1ccc2cc(-c3ccccc3)nn2c1 [Roche-Dataset for PDE10A, Compound 654] | pIC50 | 6.24
COCc1cc(C(=O)Nc2ccn3nc(-c4ccccc4)nc3c2)n(C)n1 [Roche-Dataset for PDE10A, Compound 390] | pIC50 | 7.06

---

pIC50: −log10 of the molar value.
The reader will find pIC50 measurements below, all made with UniProt Q9Y233.

compound | experimentalSystem | pIC50
CNC(=O)[C@@H]1CCC[C@H]1NC(=O)c1nc(C2CC2)cnc1Nc1cncnc1 [Roche-Dataset for PDE10A, Compound 971] | UniProt Q9Y233 | 5.94
COc1cccc(-c2cn3c(n2)C[C@H](NC(=O)c2c(C(=O)N4CCC4)cnn2C)CC3)c1 [Roche-Dataset for PDE10A, Compound 148] | UniProt Q9Y233 | 6.04
CCC(=O)c1cc(NC(=O)c2nc(C3CC3)cnc2Nc2cncnc2)ccc1O [Roche-Dataset for PDE10A, Compound 875] | UniProt Q9Y233 | 7.59

---

pIC50: −log10 of the molar value.
Below are molecules with their pIC50 as measured on UniProt:Q9Y233.
measurementType: pIC50

molecule | readoutNumber
Cc1nc(CCc2nc(-c3ccccc3)cn2C)nc2ccccc12 [Roche-Dataset for PDE10A, Compound 129] | 8.28
Cn1ncc(C(=O)N2CCC2)c1C(=O)N[C@@H]1CCn2cc(-c3ccccc3Cl)nc2C1 [Roche-Dataset for PDE10A, Compound 408] | 8.65
Cc1c(Cl)cc(OC(F)F)c2nc(CCc3nc(N4CCCC4)n(C)n3)nn12 [Roche-Dataset for PDE10A, Compound 206] | 9.27
Cn1nc(-c2ccccn2)cc1NC(=O)c1cc(Br)c[nH]c1=O [Roche-Dataset for PDE10A, Compound 636] | 6.53
Cn1ncc(C(=O)N2C[C@@H]3C[C@H]2CO3)c1C(=O)Nc1ccn2nc(N3CCOCC3)nc2c1 [Roche-Dataset for PDE10A, Compound 193] | 6.89
CCOC(=O)c1cnn(C)c1C(=O)Nc1ccn2nc(-c3cccc(F)c3)nc2c1 [Roche-Dataset for PDE10A, Compound 175] | 7.34
Cc1nc2ccccc2nc1OCc1cccc(N2CCCC2)n1 | 7.42
Cn1ncc(C(=O)N2CCOCC2)c1C(=O)Nc1cn(-c2cccc(C(F)(F)F)n2)cn1 [Roche-Dataset for PDE10A, Compound 719] | 5.05
Cn1cc(Br)c(C(=O)Nc2cc(-c3ccccn3)nn2C)n1 [Roche-Dataset for PDE10A, Compound 934] | 6.09
Cc1c(Cl)cc(Cl)c2nc(CCc3nc(N4CCCC4)nn3C)nn12 [Roche-Dataset for PDE10A, Compound 357] | 9.26
O=C(Nc1nc2cccnc2s1)c1nc(C2CC2)ccc1Nc1cncnc1 [Roche-Dataset for PDE10A, Compound 811] | 7.70
CC(C)(NC(=O)c1nc(C2CC2)cnc1Nc1cncnc1)c1nnc(-c2cccnc2)o1 [Roche-Dataset for PDE10A, Compound 1006] | 5.84
Cc1ncc(C)n2nc(CCc3nc(N(C)CC4CC4)nn3C)nc12 [Roche-Dataset for PDE10A, Compound 841] | 6.93
COc1ccc2c(=O)n(C)c3c(C)nc(C)n3c2c1 [Roche-Dataset for PDE10A, Compound 1111] | 5.60
CN(C)c1nc(CCc2nccn2-c2ccccc2)nc2ccccc12 [Roche-Dataset for PDE10A, Compound 326] | 6.23
O=C(Nc1ccccc1)c1cccc(NC(=O)c2nc(C3CC3)ccc2Nc2cncnc2)c1 [Roche-Dataset for PDE10A, Compound 556] | 8.17
O=C(Nc1ccn(CCC(F)(F)F)n1)c1nc(C2CC2)ccc1Nc1cncnc1 [Roche-Dataset for PDE10A, Compound 498] | 8.01
Cc1ccc(NC(=O)c2nc(C3CC3)cnc2Nc2cncnc2)c(C(=O)N(C)C)n1 [US8703768, 276] | 7.89
COc1nc(OCc2nc(-c3ccccc3)cn2C)nc2ccccc12 [Roche-Dataset for PDE10A, Compound 411] | 7.21
Cc1cncc(CCc2nc(N3CCCC3)nn2C)n1 [Roche-Dataset for PDE10A, Compound 989] | 5.10
COc1cccc(-c2nc3cc(NC(=O)c4c(C(=O)N5CCC5)cnn4C)ccn3n2)n1 [Roche-Dataset for PDE10A, Compound 160] | 8.96
COc1cccc(-c2noc(CCN3C(=O)c4ccccc4C3=O)n2)c1 [Roche-Dataset for PDE10A, Compound 332] | 5.00
O=C(NCCc1noc(Cc2ccccc2)n1)c1nc(C2CC2)cnc1Nc1cncnc1 [Roche-Dataset for PDE10A, Compound 275] | 6.86
O=C(c1nc(C2CC2)cnc1Nc1cncnc1)N1CCN(c2ccccc2F)CC1 [Roche-Dataset for PDE10A, Compound 975] | 5.21
Cc1cc(CNC(=O)c2cnn(C)c2C(=O)Nc2ccn3cc(-c4ccccc4)nc3n2)n[nH]1 [Roche-Dataset for PDE10A, Compound 99] | 7.77
CC(C)NC(=O)c1cccc(NC(=O)c2nc(C3CC3)cnc2Nc2cncnc2)n1 [Roche-Dataset for PDE10A, Compound 928] | 8.07
Cn1cc(-c2ccccc2)nc1/C=C/c1nc(N2CCOCC2)c2cc(Cl)ccc2n1 [Roche-Dataset for PDE10A, Compound 64] | 8.88
Cc1cc(Nc2cncnc2)cc(C(=O)Nc2cc(-c3ccccn3)nn2C)n1 [Roche-Dataset for PDE10A, Compound 542] | 7.04

---

experimentalSystem: cAMP and cAMP-inhibited cGMP 3',5'-cyclic phosphodiesterase 10A (Homo sapiens, UniProt Q9Y233)
measurementType: log10(IC50) (log10 of the value in µM)

molecule | log10(IC50)
O=C(Nc1ccn(S(=O)(=O)C(F)(F)F)n1)c1nc(C2CC2)ccc1Nc1cncnc1 [Roche-Dataset for PDE10A, Compound 635] | -1.74
CN(C)c1nc2cc(NC(=O)c3c(C(=O)N4CC(F)C4)cnn3C)ccn2n1 [Roche-Dataset for PDE10A, Compound 513] | -1.70
Cc1ncc(C)n2nc(/C=C/c3nc(N4CCN(C(=O)OC(C)(C)C)CC4)nn3C)nc12 [Roche-Dataset for PDE10A, Compound 1119] | -0.40
O=C(Nc1cc(-c2ccccc2)no1)c1ccc2cc(-c3ccccc3)nn2c1 [Roche-Dataset for PDE10A, Compound 752] | 0.65
CN(CCNC(=O)c1nc(C2CC2)cnc1Nc1cncnc1)C(=O)c1ccccn1 [Roche-Dataset for PDE10A, Compound 581] | 1.00
COc1ccc2c(c1)c(=O)n(C)c1c(C)nc(-c3ccccc3Cl)n21 [Roche-Dataset for PDE10A, Compound 965] | -2.11
